Ref: paper PMC6879560

# testedOn: Prodrug activation and resistance esterase (PfPARE) (Plasmodium falciparum)
# Construct: native 37 kDa species in saponin-isolated parasite lysate; also confirmed with endogenous C-terminal YFP fusion
# Sequence (Q8IBZ2 entry or part of it): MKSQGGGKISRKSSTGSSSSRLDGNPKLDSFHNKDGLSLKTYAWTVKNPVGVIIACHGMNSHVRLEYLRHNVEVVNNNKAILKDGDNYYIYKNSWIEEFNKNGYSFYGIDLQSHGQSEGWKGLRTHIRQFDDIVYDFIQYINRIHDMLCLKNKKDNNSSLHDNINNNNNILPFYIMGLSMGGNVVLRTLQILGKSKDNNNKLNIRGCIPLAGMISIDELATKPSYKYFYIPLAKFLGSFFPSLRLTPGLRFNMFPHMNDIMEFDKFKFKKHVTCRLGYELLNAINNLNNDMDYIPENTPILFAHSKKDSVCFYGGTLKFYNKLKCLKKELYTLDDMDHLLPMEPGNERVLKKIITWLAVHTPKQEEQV
# protocolDescription: gel-based competitive ABPP with TAMRA-FP in parasite lysate; identity confirmed by YFP-tag shift
assayReadout: IC50 (nM)
Record the value in nM, omitting the unit from your answer.

Lab note: compound `O=C(OC(C(F)(F)F)C(F)(F)F)N1CCN(Cc2cccc(Oc3ccccc3)c2)CC1` tested on Prodrug activation and resistance esterase (PfPARE) (Plasmodium falciparum); recorded IC50 was 2.5
